These data points were gathered from the supplement of paper PMC6555819.

test system: VDR:RXRa (NR concentration 270 nM, RXRa partner concentration 90 nM); assay: PBM binding z-score (relative to random genomic background probes); higher = stronger binding; sequences stand for … in GC…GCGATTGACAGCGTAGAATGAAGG
Classification field: enter Y for PBM binding z-score values not below 1, N for values below it.

Determine whether this sequence has PBM binding z-score no lower than 1: "TCTGCTAGGTCACCGATGGTCAGCTAATCTGCTA"
Y

Determine whether this sequence has PBM binding z-score no lower than 1: "AGAATGAGGTTATACGTAGATCAGGGACGAAAGT"
Y

Determine whether this sequence has PBM binding z-score no lower than 1: "ATCTCTAGGTAAATTTCAGTGAAAGATCGATAGA"
N

Determine whether this sequence has PBM binding z-score no lower than 1: "ATATGTAGGTTAGCTGGTGTCATTCAGACTAGGC"
Y

Determine whether this sequence has PBM binding z-score no lower than 1: "ATACCAAGGAGATCGTGAGGTCGTTGATACTAAC"
Y

New cases:
Determine whether this sequence has PBM binding z-score no lower than 1: "GGAACGAGGGCAAGTTGATAGCCGAGTTTGATGG"
Y

Determine whether this sequence has PBM binding z-score no lower than 1: "GCTCAGAGGACAAGGTCAGAGCTTTGTCCGTAGA"
Y

Determine whether this sequence has PBM binding z-score no lower than 1: "CCGACTGCGGCAGAAAGGTTACCATACCATCCGG"
N

Determine whether this sequence has PBM binding z-score no lower than 1: "CGTCCAAGGTCAAAGGTCAGTGGAGAGATGACGG"
Y

Determine whether this sequence has PBM binding z-score no lower than 1: "CGTCAAAGTTCACGGTAACGTAACAGAAAGCAGC"
Y

Determine whether this sequence has PBM binding z-score no lower than 1: "GCTATTAGTTGAAAGGGCCACCGAATGATTCTCG"
N

* * *

Item-by-item account of PBM binding z-score
tested on: PPARg:RXRa 90nM:30nM, anti-RXR (NR concentration 90 nM, RXRa partner concentration 30 nM); experiment: PBM binding z-score (relative to random genomic background probes); higher = stronger binding; sequences stand for … in GC…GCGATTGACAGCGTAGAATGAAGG
Enter the number alone.

Item: "CCTTACGGGTCACGAGGTTCTAGCACGACGAGCG" | PBM binding z-score: 5.36

Item: "TCTCGGAGGACACGAAAGGTTAGAGCTCGACATC" | PBM binding z-score: 2.03

Item: "TAGCCTAGGTCAGCTCGGGCCAGTATACGCTATA" | PBM binding z-score: 0.418

Item: "CCTACTGGGCCATCAAGTCATTGATATCAACGTT" | PBM binding z-score: 0.805

Item: "ATCTCTAGGTAACCATGTTCAGTGAATGCCGAAC" | PBM binding z-score: 0.484

New cases:
Item: "GCTAGGTGGTCAGTAAAAGGTCACACACCGGTCG" | PBM binding z-score: 3.51

Item: "CCTTATGGGTCACTGACAGGTTATAGCATTTGGA" | PBM binding z-score: 4.08

Item: "TCTCGGAGGACACGAAAGGACAGAGCTCGACATC" | PBM binding z-score: 1.34

Item: "CCGACTGGCGCAAGGTTACCATAACGCACAGCCA" | PBM binding z-score: -0.61

Item: "GCAGACTGGTGAAACGCAGGTAACTCAGGGTGGC" | PBM binding z-score: -1.12

* * *

system: PPARg homodimer (NR concentration 180 nM); experiment: PBM binding z-score (relative to random genomic background probes); higher = stronger binding; sequences stand for … in GC…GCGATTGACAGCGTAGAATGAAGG
quantity: PBM binding z-score

Item: "CCTAGCTGGTCAGGAGGTCACACACCGGATATGA" | PBM binding z-score: 3.15

New cases:
Item: "TCGAGTAGTTTACCAATGGGGCATTCAGCTTTCT" | PBM binding z-score: -0.418

Item: "TCAGACAGGTGACGGTAACTCAGGTACGCAGTCG" | PBM binding z-score: 0.126

Item: "TCGAGTAGGTTAGTCGGGGCATTTAGCCAACATA" | PBM binding z-score: 0.35

Item: "CCGAGTAGGTTATGGGGGATTCAGGCAACGGTGA" | PBM binding z-score: 2.01

Item: "TAGCCTAGGTAAGATCGGGCCAGTATACGCTATA" | PBM binding z-score: -0.948

* * *

test system: RARb homodimer (NR concentration 270 nM); experiment: PBM binding z-score (relative to random genomic background probes); higher = stronger binding; sequences stand for … in GC…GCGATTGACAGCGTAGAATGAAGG
Classification field: enter true (1) for PBM binding z-score values not below 1, false (0) for values below it.

Look over these answered cases.
Determine whether this sequence has PBM binding z-score no lower than 1: "ACTATTAGTTGACTTAGGTCAACCGATACGACGC"
true (1)

Determine whether this sequence has PBM binding z-score no lower than 1: "GCTAGTTGGTCAGTAAACGGTCACACACCGGTCG"
true (1)

Determine whether this sequence has PBM binding z-score no lower than 1: "ATCTCTAGGTAAAGATAGTTCAGTTAATGCAAAT"
true (1)

Determine whether this sequence has PBM binding z-score no lower than 1: "ACAGACAGGTGATGAAGGTAACTCAGGCTATCAT"
false (0)

Determine whether this sequence has PBM binding z-score no lower than 1: "TCATATAGGGAAACAGGTGAAAGTCCGTAAGTTA"
false (0)

Turning now to a further record.
Determine whether this sequence has PBM binding z-score no lower than 1: "ATCTCTCGGTAAGACTCAGTTCAGTGAAGAACGC"
true (1)

* * *

test system: PPARg:RXRa (NR concentration 180 nM, RXRa partner concentration 90 nM); assay: PBM binding z-score (relative to random genomic background probes); higher = stronger binding; sequences stand for … in GC…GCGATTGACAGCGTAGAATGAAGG
quantity: PBM binding z-score
Enter the number alone.

Known PBM binding z-score results, listed for orientation:
Item: "GCTGCTAGGTCAGCTGATGGTCAGCTAAAGCTCG" | PBM binding z-score: 0.146

Item: "CCTTACGGGTCAAGGTTATAGGACGGGTGGTACG" | PBM binding z-score: 4.55

Item: "CCGAGTAGGTTATGGGGCACTCAGGCAACGGTGA" | PBM binding z-score: 3.55

Item: "TCATATAGGTAATACAGGTGGAAGTCGGCATCTA" | PBM binding z-score: 1.07

Item: "GCTAGTTGGTCAGTACAAGGTCACACACCGGTCG" | PBM binding z-score: 1.38

Item: "CCTTACGGCTCACTGACAGGTTATAGCATTTGGA" | PBM binding z-score: 0.426

New cases:
Item: "ACTATTAGTTGACTGAGGGCAACCGATACGACGC" | PBM binding z-score: 0.804

Item: "CCAGACAGGTGAGAAGCTAACTCAGCCTCGATTA" | PBM binding z-score: 0.347

Item: "TAGCCTAGCTCAGATCGGGCCAGTATACGCTATA" | PBM binding z-score: -0.0455

Item: "CAAACTAGGTCACAGAAGTCAAAGTCCGTGCGTA" | PBM binding z-score: 8.96

Item: "CGTCCAAGGTCAATGCTAGGTCAGTGACAGCATT" | PBM binding z-score: 4.11

Item: "CCTCGGAGGACAGAAGGTCAGAGCAGTCCGCTTT" | PBM binding z-score: 0.114

* * *

test system: VDR homodimer (NR concentration 270 nM); experiment: PBM binding z-score (relative to random genomic background probes); higher = stronger binding; sequences stand for … in GC…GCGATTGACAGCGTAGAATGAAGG
quantity: PBM binding z-score
Enter the number alone.

Known PBM binding z-score results, listed for orientation:
Item: "GCTCCGAGGACAAGGTCAGAGCTTTGTCCGTAGA" | PBM binding z-score: 0.674

Item: "TCTTGTAGATCAAAGGTTCAGAAAGCCGAAGCCT" | PBM binding z-score: 1.5

Item: "TCTTGTACATCAAAGGTTAAGAAAGCCGAAGCCT" | PBM binding z-score: 0.246

Item: "ATCGAAAGGTCGAAGGGGAGTATACCCACCCGAA" | PBM binding z-score: 0.649

Item: "CATACAGGGTCAGCTAGGCCAGAGCAGGGACGGC" | PBM binding z-score: 0.954

New cases:
Item: "ATCGAAAGGTCGAAGGTAAGTATACCCACCCGAA" | PBM binding z-score: 0.843

* * *

Item-by-item account of PBM binding z-score
test system: PPARg:RXRa DBDmut IVT, anti-RXR (DBD mutation: RXRa K156A/R161A, NR concentration 270 nM, RXRa partner concentration 90 nM); assay: PBM binding z-score (relative to random genomic background probes); higher = stronger binding; sequences stand for … in GC…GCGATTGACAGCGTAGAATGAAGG
Enter the number alone.

Item: "CCTGCTAGGTCATTGTCAGCTAATCTACAGTATG" | PBM binding z-score: 4.13

Item: "GCAAGCAGGCCATTTGGGTCACTCAATGACGGGC" | PBM binding z-score: 1.67

Item: "AATACAGGGTCATCGTAGGCCAGCGTACGCACAG" | PBM binding z-score: 2.7

Item: "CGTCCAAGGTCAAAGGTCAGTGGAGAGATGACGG" | PBM binding z-score: 3.88

Item: "TGAATGAGGTTAAAGATCAGAGAACGTGGCGTCG" | PBM binding z-score: 1.89

Item: "ATCGCTAGGTAAGACTCAGTTCAGTGAAGAACGC" | PBM binding z-score: -0.311

New cases:
Item: "AGAATAAGGTTATACGTAGATCAGGGAAGAAAGT" | PBM binding z-score: 2.81

Item: "TTACCAAGGTGAAGGTCGATGATCCCTCTGTAGA" | PBM binding z-score: 1.53

Item: "TCATATAGGTAAATGCTAGGTGGAAGTCCGATCT" | PBM binding z-score: 3.98

Item: "GCTATTTGGTCAGTAAAAGGTCACACACCGGTCG" | PBM binding z-score: 1.19

Item: "ATATGTAGGTTAAGGGTCATTGAGGTTGGTTCGC" | PBM binding z-score: 7.14

Item: "ATCGAGAGGTCGTGAGGTGAGTATACAGAAAGGC" | PBM binding z-score: 0.135
